From: paper PMC8468039

# experimental_system: UniProtKB P07948
# Sequence (P07948 whole entry): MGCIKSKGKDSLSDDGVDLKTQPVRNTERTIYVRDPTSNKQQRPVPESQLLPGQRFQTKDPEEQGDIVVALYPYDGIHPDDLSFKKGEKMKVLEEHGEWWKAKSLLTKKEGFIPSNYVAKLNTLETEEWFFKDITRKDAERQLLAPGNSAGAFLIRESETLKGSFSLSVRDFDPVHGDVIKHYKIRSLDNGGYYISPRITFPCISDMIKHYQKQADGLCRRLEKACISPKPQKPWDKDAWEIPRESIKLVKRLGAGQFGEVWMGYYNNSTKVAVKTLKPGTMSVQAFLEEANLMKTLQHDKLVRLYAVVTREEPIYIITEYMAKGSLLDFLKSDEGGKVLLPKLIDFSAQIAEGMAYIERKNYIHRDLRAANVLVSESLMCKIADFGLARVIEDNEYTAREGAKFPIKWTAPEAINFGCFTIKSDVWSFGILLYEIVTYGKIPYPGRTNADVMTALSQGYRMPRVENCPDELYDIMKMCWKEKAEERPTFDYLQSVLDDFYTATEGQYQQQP

{"columns": ["molecule", "IC50 (nM)"],
 "data": [
  ["COc1ccc(Oc2nc(Nc3ccc(N4CCOCC4)cc3)ncc2NC(=O)c2cccc(SC)c2)cc1 [5g]", 169]
]}

----------
# experimental_system: DAPK1 (Homo sapiens)
# Construct: purchased Reaction Biology Corp
# Sequence (P53355 whole entry): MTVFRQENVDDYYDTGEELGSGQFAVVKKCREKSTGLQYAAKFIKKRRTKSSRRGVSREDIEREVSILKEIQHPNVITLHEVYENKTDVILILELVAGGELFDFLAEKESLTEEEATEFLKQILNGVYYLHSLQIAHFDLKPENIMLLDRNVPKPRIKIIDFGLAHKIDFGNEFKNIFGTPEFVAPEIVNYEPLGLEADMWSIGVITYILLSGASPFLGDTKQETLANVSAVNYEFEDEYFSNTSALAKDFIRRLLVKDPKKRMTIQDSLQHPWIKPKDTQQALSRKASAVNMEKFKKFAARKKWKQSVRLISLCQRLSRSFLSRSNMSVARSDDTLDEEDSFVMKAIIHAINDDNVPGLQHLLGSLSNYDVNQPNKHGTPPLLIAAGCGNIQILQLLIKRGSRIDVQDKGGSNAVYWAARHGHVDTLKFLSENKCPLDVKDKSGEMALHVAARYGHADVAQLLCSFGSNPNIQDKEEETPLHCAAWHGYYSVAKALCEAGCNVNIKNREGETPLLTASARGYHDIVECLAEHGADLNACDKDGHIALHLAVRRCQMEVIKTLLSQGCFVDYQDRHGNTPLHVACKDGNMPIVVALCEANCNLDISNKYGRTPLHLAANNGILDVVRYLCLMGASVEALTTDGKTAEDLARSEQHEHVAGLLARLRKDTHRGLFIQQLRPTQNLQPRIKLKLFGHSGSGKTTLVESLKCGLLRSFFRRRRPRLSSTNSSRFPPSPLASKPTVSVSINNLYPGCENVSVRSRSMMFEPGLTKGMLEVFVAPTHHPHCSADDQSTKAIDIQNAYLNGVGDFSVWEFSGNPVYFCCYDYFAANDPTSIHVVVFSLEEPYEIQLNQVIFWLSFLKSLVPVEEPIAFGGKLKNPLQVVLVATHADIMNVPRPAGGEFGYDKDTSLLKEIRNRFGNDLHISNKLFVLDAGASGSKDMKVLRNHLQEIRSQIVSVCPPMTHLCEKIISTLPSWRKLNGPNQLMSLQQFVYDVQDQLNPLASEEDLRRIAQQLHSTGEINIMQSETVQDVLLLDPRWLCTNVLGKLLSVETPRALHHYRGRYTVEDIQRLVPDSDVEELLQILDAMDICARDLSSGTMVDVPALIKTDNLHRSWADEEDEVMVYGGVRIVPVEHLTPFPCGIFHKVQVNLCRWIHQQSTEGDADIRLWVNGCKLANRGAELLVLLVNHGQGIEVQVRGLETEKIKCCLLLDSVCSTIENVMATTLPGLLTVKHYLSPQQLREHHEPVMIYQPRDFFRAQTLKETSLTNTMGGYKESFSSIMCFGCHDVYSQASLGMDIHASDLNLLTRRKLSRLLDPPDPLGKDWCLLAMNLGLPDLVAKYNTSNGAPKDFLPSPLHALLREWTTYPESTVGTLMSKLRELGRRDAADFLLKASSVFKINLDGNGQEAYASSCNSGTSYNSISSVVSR
# protocol_text: In vitro kinase inhibition assay (HotSpot, Reaction Biology)
# Assay type: biochemical
# condition_info: single dose of 10 µM; read-out: Percent Inhibition, DAPK1
# Protocol: The in vitro kinase inhibition assay was carried out by Reaction Biology Corp. (Reaction Biology Corp., Chester, PA, USA) Kinase HotSpot^SM service (http://www.reactionbiology.com, accessed on 15 January 2021), following the previously reported methods. (For details, see Supplementary Material). […] Kinases inhibitory activities were assessed by the HotSpot assay platform, which contained specific kinase/substrate pairs along with required cofactors. […]
recorded_metric: inhibition at 10 µM (%)

{"columns": ["compound", "experimental_system", "units_symbol", "data_value"],
 "data": [
  ["COc1ccc(Oc2nc(Nc3ccc(N4CCOCC4)cc3)ncc2NC(=O)c2cccc(SC)c2)cc1 [5g]", "DAPK1 (Homo sapiens)", "%", 54.6],
  ["COc1ccc(Oc2nc(Nc3ccc(N4CCOCC4)cc3)ncc2NC(=O)c2cc(OC)c(OC)c(OC)c2)cc1 [5c]", "DAPK1 (Homo sapiens)", "%", 50],
  ["CCOc1cc(OCC)cc(C(=O)Nc2cnc(Nc3ccc(N4CCOCC4)cc3)nc2Oc2ccc(OC)cc2)c1 [5d]", "DAPK1 (Homo sapiens)", "%", 51.6]
]}

----------
# Tested on: HS 578T
# protocol_text: NCI growth inhibition (SRB) assay
# Type: cell-based
# condition_info: Homo sapiens, Breast Cancer, single dose 10 µM, 48 h, read-out: Percent Growth Inhibition (GI)

{"columns": ["compound", "inhibition at 10 µM [%]"],
 "data": [
  ["COc1ccc(Oc2nc(Nc3ccc(N4CCOCC4)cc3)ncc2NC(=O)c2cccc(SC)c2)cc1 [5g]", 22.7],
  ["COc1ccc(Oc2nc(Nc3ccc(N4CCOCC4)cc3)ncc2NC(=O)Cc2cc(OC)cc(OC)c2)cc1 [5e]", 1.64],
  ["COc1ccc(Oc2nc(Nc3ccc(N4CCOCC4)cc3)ncc2NC(=O)c2ccc(OC)c(OC)c2)cc1 [5b]", 5.09],
  ["CCOc1cc(OCC)cc(C(=O)Nc2cnc(Nc3ccc(N4CCOCC4)cc3)nc2Oc2ccc(OC)cc2)c1 [5d]", 7.96],
  ["COc1ccc(Oc2nc(Nc3ccc(N4CCOCC4)cc3)ncc2NC(=O)c2cc(OC)c(OC)c(OC)c2)cc1 [5c]", 3.23],
  ["COc1ccc(Oc2nc(Nc3ccc(N4CCOCC4)cc3)ncc2NC(=O)c2ccc3c(c2)OCO3)cc1 [5a]", 6.26],
  ["COc1ccc(Oc2nc(Nc3ccc(N4CCOCC4)cc3)ncc2NC(=O)c2ccnc([N+](=O)[O-])c2)cc1 [5f]", 6.7]
]}

----------
Parameter melting point: see the listing below.

{"columns": ["given_smiles", "melting point"],
 "data": [
  ["COc1ccc(Oc2nc(Nc3ccc(N4CCOCC4)cc3)ncc2NC(=O)Cc2cc(OC)cc(OC)c2)cc1", "152.7 to 153.7 °C"],
  ["COc1ccc(Oc2nc(Nc3ccc(N4CCOCC4)cc3)ncc2NC(=O)c2ccnc([N+](=O)[O-])c2)cc1", "170 to 171 °C"],
  ["COc1ccc(Oc2nc(Nc3ccc(N4CCOCC4)cc3)ncc2NC(=O)c2cc(OC)c(OC)c(OC)c2)cc1", "179.5 to 180.5 °C"],
  ["COc1ccc(Oc2nc(Nc3ccc(N4CCOCC4)cc3)ncc2NC(=O)c2ccc3c(c2)OCO3)cc1", "205.9 to 206.9 °C"]
]}
